experiment: qHTS profiling of the MIPE4 collection as inhibitors of Plasmodium falciparum (3D7) proliferation (AID 743344);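 also: scaled between DMSO vehicle wells and 0.29 µM artemisinin as full inhibition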; conditions: P. falciparum 3D7 in erythrocytes, SYBR Green DNA fluorescence, 72 h; at 28.5 µM unless noted
Use 70% as the dividing line for parasite growth, % of DMSO control, with the line itself on the Criterion met side and lower values as Criterion not met.

>  <compound>
CN(C)CCCC1(c2ccc(F)cc2)OCc2cc(C#N)ccc21 (configuration not stated)

>  <group>
Criterion met

$$$$
>  <compound>
COc1cc(C(C)=O)ccc1OCCCN1CCC(c2noc3cc(F)ccc23)CC1

>  <group>
Criterion not met

$$$$
>  <compound>
CC(S)C(=O)NCC(=O)O (configuration not stated)

>  <group>
Criterion met

$$$$
>  <compound>
CCCCC(CC)COC(=O)C(C#N)=C(c1ccccc1)c1ccccc1 (configuration not stated)

>  <group>
Criterion not met

$$$$
>  <compound>
CC(=O)NC[C@H]1CN(c2ccc(N3CCOCC3)c(F)c2)C(=O)O1

>  <group>
Criterion not met

$$$$

Prompt: Please check the record `Cc1cc2cc3c(C)cc(=O)oc3c(C)c2o1` and state if its parasite growth, % of DMSO control is at or above 70%.
Response: Criterion met

Prompt: Also, `COCCCN1CCC(NC(=O)c2cc(Cl)c(N)c3c2OCC3)CC1` please.
Response: Criterion not met

Prompt: // repeat for `O=c1oc2cc(O)ccc2s1` and report
Response: Criterion met

Prompt: What about `Nc1cc(C(Cl)=C(Cl)Cl)c(S(N)(=O)=O)cc1S(N)(=O)=O` ?
Response: Criterion met

Prompt: Proceed to `CC1(C)NC(=O)N(c2ccc([N+](=O)[O-])c(C(F)(F)F)c2)C1=O`
Response: Criterion met

Prompt: Subsequent entry: CCC1=C(C)CN(C(=O)NCCc2ccc(S(=O)(=O)NC(=O)NC3CCC(C)CC3)cc2)C1=O (configuration not stated)
Response: Criterion met

Prompt: Ok, now `CC(=O)N1CCN(c2ccc(OC[C@H]3CO[C@](Cn4ccnc4)(c4ccc(Cl)cc4Cl)O3)cc2)CC1`
Response: Criterion not met

###

Assay: qHTS profiling of the MIPE4 collection as inhibitors of Plasmodium falciparum (3D7) proliferation (AID 743344);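 also: scaled between DMSO vehicle wells and 0.29 µM artemisinin as full inhibition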
Details: P. falciparum 3D7 in erythrocytes, SYBR Green DNA fluorescence, 72 h; at 28.5 µM unless noted
Procedure: Plasmodium falciparum is a virulent malarial parasite that kills 1-2 million people worldwide each year. […] Because mature erythrocytes lack DNA, only Plasmodium-derived DNA is detected. The SYBR Green viability assay was adapted from a method described previously (Plouffe et al., 2008). […] The following morning, fluorescence intensity at 485(14) nm excitation and 535(25) nm emission wavelengths was measured on an EnVision (Perkin Elmer) plate reader. […]
recorded-metric: parasite growth, % of DMSO control (%)
Field format: number, assumed %, no unit text.

>  <smiles-data>
CN(C)c1ccc(O)c2c1C[C@H]1C[C@H]3[C@H](N(C)C)C(=O)C(C(N)=O)=C(O)[C@@]3(O)C(=O)C1=C2O

>  <unit-abbrev>
%

>  <reported>
6.29

$$$$
>  <smiles-data>
O=C(NOCC1CC1)c1ccc(F)c(F)c1Nc1ccc(I)cc1Cl

>  <unit-abbrev>
%

>  <reported>
24.6

$$$$
>  <smiles-data>
CCCc1cc(=O)[nH]c(=S)[nH]1

>  <unit-abbrev>
%

>  <reported>
95.4

$$$$

For the next question, use this compound.
Prompt: Reported parasite growth, % of DMSO control, compound `c1ccc2[nH]c(-c3cscn3)nc2c1` : ____
Response: 11.2
